- experimental-target: ALK2 R206H (GST-tagged mutant ALK2) (Homo sapiens, UniProt Q04771, R206H)
- Construct: purchased Carna Bioscience or ThermoFisher 09-148 or PV6232
- Sequence (Q04771 21-509 R206H): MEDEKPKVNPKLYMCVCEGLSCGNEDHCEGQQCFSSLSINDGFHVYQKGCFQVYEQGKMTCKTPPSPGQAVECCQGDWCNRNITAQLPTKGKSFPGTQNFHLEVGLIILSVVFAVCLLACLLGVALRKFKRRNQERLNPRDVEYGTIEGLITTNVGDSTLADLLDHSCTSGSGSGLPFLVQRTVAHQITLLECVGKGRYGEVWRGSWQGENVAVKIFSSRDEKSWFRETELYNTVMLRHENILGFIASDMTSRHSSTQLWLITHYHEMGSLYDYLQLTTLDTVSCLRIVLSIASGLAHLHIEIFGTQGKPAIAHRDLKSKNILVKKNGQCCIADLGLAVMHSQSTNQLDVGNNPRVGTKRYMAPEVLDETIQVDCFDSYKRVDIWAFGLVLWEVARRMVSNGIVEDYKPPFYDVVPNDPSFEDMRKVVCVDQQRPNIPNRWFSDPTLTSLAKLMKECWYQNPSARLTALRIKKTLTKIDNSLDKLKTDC
- experiment-summary: ALK binding assay (LANTHASCREEN TR-FRET competitive binding, displacement of Kinase Tracer 178)
- recorded-conditions: ALK2 R206H, LANTHASCREEN TR-FRET competitive binding; read-out: Binding Assay (IC50)
pIC50: −log10 of the molar value.

| compound | experimental-target | pIC50 |
| --- | --- | --- |
| CO[C@@]1(c2ccc(-c3cc4c(N5CCN(C(=O)C6CC6)CC5)ccnn4c3)cc2)CCN(C(C)C)C1 | ALK2 R206H (GST-tagged mutant ALK2) (Homo sapiens, UniProt Q04771, R206H) | > 8.00 |
| CCN1CCC(c2ccc(-c3cc4c(N5CCN(C(=O)C6(C(F)F)CC6)CC5)ccnn4c3)cc2)C1 (stereo not shown) | ALK2 R206H (GST-tagged mutant ALK2) (Homo sapiens, UniProt Q04771, R206H) | 7.30 to 8.00 |
| N[C@H](CO)c1ccc(-c2cc3c(N4CCN(C(=O)OC5COC5)CC4)ccnn3c2)cc1 | ALK2 R206H (GST-tagged mutant ALK2) (Homo sapiens, UniProt Q04771, R206H) | > 8.00 |
| CC(C)N1CC[C@@H](c2ccc(-c3cc4c(N5CCN(C(=O)[C@H]6C[C@@H]6C#N)CC5)ccnn4c3)cc2)C1 | ALK2 R206H (GST-tagged mutant ALK2) (Homo sapiens, UniProt Q04771, R206H) | > 8.00 |

* * *

- experimental-target: human ALK2 R206H (Homo sapiens, UniProt Q04771, R206H)
- Construct: expressed in transfected cells; host or cells: HEK293 (ATCC CRL1573), lentivirus transduction, blasticidin selection
- experiment-summary: Cell-based ALK2-R206H cell activity assay (Smad1-Ser463/Ser465 phosphorylation by AlphaLISA in HEK293-ALK2-R206H cells)
- recorded-conditions: read-out: Cell Line (Cell Assay IC50)
property: IC50

| molecule | assay-result |
| --- | --- |
| CC(C)NC(=O)N1CCN(c2ccnn3cc(-c4ccc([C@]5(C)CCCN5C(C)C)cc4)cc23)CC1 | < 100 nM |
| Cc1cc([C@@H]2CCN(C(C)C)C2)ccc1-c1cc2c(N3CCN(C(=O)C4CC4)CC3)ccnn2c1 | 100 to 500 nM |
| CC(C)NC(=O)N1CCN(c2ccnn3cc(-c4ccc(C5COCCN5)cc4)cc23)CC1 (stereo not drawn) | < 100 nM |
| O=C(C1CCC1)N1CCN(c2ccnn3cc(-c4ccc(N5CCNCC5)cc4)cc23)CC1 | 100 to 500 nM |
| CCN1CCC(c2ccc(-c3cc4c(N5CCN(C(=O)N6CC(O)C6)CC5)ccnn4c3)cc2)CC1 | < 100 nM |
| CCNC(=O)N1CCN(c2ccnn3cc(-c4ccc(C5CCN(C(C)C)CC5)nn4)cc23)CC1 | > 500 nM |
| CO[C@@]1(c2ccc(-c3cc4c(N5CCN(C(=O)C6CC6)CC5)ccnn4c3)cc2)CCCNC1 | < 100 nM |
| CC(C)N1CC2(CN(c3ccc(-c4cc5c(N6CCN(C(=O)[C@H]7C[C@@H]7F)CC6)ccnn5c4)cc3)C2)C1 | 100 to 500 nM |
| COC1(c2ccc(-c3cc4c(N5CCN(C(=O)C6CC6)CC5)ccnn4c3)nc2)CCNCC1 | < 100 nM |
| COC(=O)N1CCN(c2ccnn3cc(-c4ccc(C5CCN(C(C)C)CC5)cc4)cc23)CC1 | 100 to 500 nM |
| CC(C)N1CC[C@@H](c2ccc(-c3cc4c(N5CCN(C(=O)[C@H]6C[C@H](O)C6)CC5)ccnn4c3)cc2)C1 | < 100 nM |
| CC(C)N1CCC[C@@](O)(c2ccc(-c3cc4c(N5CCN(C(=O)C6CC6)CC5)ccnn4c3)cc2)C1 | < 100 nM |
| CC(C)N1CCC[C@@](F)(c2ccc(-c3cc4c(N5CCN(C(=O)OC6COC6)CC5)ccnn4c3)cc2)C1 | < 100 nM |
| CCCNC(=O)N1CCN(c2ccnn3cc(-c4ccc([C@H]5CCCN(C(C)C)C5)cc4)cc23)CC1 | < 100 nM |
| O=C(C1CC1)N1CCN(c2ccnn3cc(-c4ccc(N5CC6(CNC6)C5)cc4)cc23)CC1 | 100 to 500 nM |
